Assay: in vitro
Conditions: PAMPA, ADME P: PAMPA permeability (class)
value.kind: Papp

Problem: For CC1=C(C(=O)Nc2cc(C(=O)O)ccn2)C(c2ccccc2Cl)N=C(Nc2nc3cc(Cl)ccc3o2)N1 (stereo not shown) , what is its reported Papp?
Result: < 10 ×10⁻⁶ cm/s

----------
Molecular target: recombinant human GALK1 (Homo sapiens)
Sequence (P51570 whole entry): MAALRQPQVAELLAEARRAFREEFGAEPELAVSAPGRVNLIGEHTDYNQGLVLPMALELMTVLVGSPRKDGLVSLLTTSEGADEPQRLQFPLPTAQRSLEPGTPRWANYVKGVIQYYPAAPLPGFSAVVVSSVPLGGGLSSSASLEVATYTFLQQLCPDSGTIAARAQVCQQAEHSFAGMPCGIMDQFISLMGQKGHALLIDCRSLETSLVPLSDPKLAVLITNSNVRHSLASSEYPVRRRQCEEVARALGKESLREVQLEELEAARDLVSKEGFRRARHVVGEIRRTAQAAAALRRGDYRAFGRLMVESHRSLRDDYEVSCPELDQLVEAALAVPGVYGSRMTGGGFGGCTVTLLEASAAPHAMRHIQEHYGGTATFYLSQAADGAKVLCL
Experiment: hGALK1 biochemical activity assay (Kinase-Glo Plus, ATP depletion)
Settings: Tables 2-15; 35 μM ATP, 100 μM galactose, 1 h; bracketed figure after some values (e.g. −1.2) is undefined and not reported; read-out: hGALK IC50
value.kind: pIC50
API: returns pIC50 as number; meaning -log10 of concentration in mol/L.

In the examples that follow, each entry is paired with its recorded pIC50.
compound="CCOc1ccc(C2N=C(Nc3nc4ccc(F)cc4o3)NC(C)=C2C(=O)Nc2cc(C(=O)O)ccn2)c(Cl)c1 (stereo not shown)" test_target="recombinant human GALK1 (Homo sapiens)" value_kind=pIC50 recorded_value=6.16
compound="CC1=C(C(=O)Nc2ccc(CO)cc2)C(c2ccccc2Cl)N=C(Nc2nc3ccccc3o2)N1 (stereo not shown)" test_target="recombinant human GALK1 (Homo sapiens)" value_kind=pIC50 recorded_value=4.76
compound="CC1=C(C(=O)NCc2cnn(C)c2)C(c2ccc(C)cc2Cl)N=C(Nc2nc3cnccc3o2)N1 (stereo not shown)" test_target="recombinant human GALK1 (Homo sapiens)" value_kind=pIC50 recorded_value=5.51

From here, focus on the item given below.
Problem: For CC1=C(C(=O)Nc2cc(C(=O)O)ccn2)C(c2cccc(C(F)(F)F)c2)N=C(Nc2nc3ccc(F)cc3o2)N1 (stereo not shown) , what is its reported pIC50?
Result: 4.71
